# ASSAY NOTES: Toxicity liver stage against HepG2, at 10uM
# Format: cell-based
# Set-up: test concentration 10 uM, cell line HepG2-A16-CD81EGFP
# APPLIED CONDITIONS: human, HepG2-A16-CD81EGFP cells; read-out: INHIBITION
I'd appreciate it if you could supply cytotoxicity at 10 µM values for the items below.
Numbers only, in %.

Some compounds with known cytotoxicity at 10 µM results, for comparison:
{"COMPOUND": "CN(CCCOc1ccccc1Cl)C(=O)CN1C(=O)CCNC1=O", "VALUE UNITS": "%", "REPORTED RESULT": -1.97}
{"COMPOUND": "CN(C(=O)C1CCN(Cc2cnc3ccccn23)CC1)c1ccccc1", "VALUE UNITS": "%", "REPORTED RESULT": 38.9}
{"COMPOUND": "c1ccc(Cc2cncc(C3CCCN3C3CCOCC3)n2)cc1 (stereo unspecified)", "VALUE UNITS": "%", "REPORTED RESULT": 1.4}
{"COMPOUND": "COc1ccc(-c2cccc3c2OC(CN)C3)cc1F (stereo unspecified)", "VALUE UNITS": "%", "REPORTED RESULT": -51.4}
{"COMPOUND": "CCCc1nc(CN(CC)Cc2ccc(O)c(C(=O)O)c2)no1", "VALUE UNITS": "%", "REPORTED RESULT": -6.33}

Now take the following compound into account.
Q) Reported cytotoxicity at 10 µM for `Cc1c(NCCO)cccc1OC1CCCC1` : what is it?
A) 3.1

----------
I'd appreciate it if you could supply cytotoxicity at 10 µM values for the items below.
# ASSAY NOTES: Toxicity liver stage against HepG2, at 10uM
# Type: cell-based
# Parameters: test concentration 10 uM, cell line HepG2-A16-CD81EGFP
# APPLIED CONDITIONS: human, HepG2-A16-CD81EGFP cells; read-out: INHIBITION
One number for each entry, in %.

{"COMPOUND": "CCOc1ccc(Cl)c(C(=O)NC(C(N)=O)c2ccccc2)n1 (centres undefined)", "RESULT TYPE": "cytotoxicity at 10 µM", "VALUE UNITS": "%", "REPORTED RESULT": -0.425}
{"COMPOUND": "Cc1cc(C(=O)N2CCC3(CC2)COCCN(c2cccnc2)C3)[nH]n1", "RESULT TYPE": "cytotoxicity at 10 µM", "VALUE UNITS": "%", "REPORTED RESULT": -2.66}
{"COMPOUND": "O=C(CCNc1ncccn1)N1CCC(Nc2cccnn2)CC1", "RESULT TYPE": "cytotoxicity at 10 µM", "VALUE UNITS": "%", "REPORTED RESULT": -12.9}
{"COMPOUND": "CNC(=O)CCc1cc(C)nc(C2CCCN2)c1 (centres undefined)", "RESULT TYPE": "cytotoxicity at 10 µM", "VALUE UNITS": "%", "REPORTED RESULT": -8.49}
{"COMPOUND": "CCc1noc(CN2CCOC3(CCCC3)C2)n1", "RESULT TYPE": "cytotoxicity at 10 µM", "VALUE UNITS": "%", "REPORTED RESULT": -3.54}

Lab note: each compound below needs its cytotoxicity at 10 µM filled in.
1. CN(C)C(=O)c1cccc(CN2CCN(CCO)CC2)c1
2. CC(NC(=O)NCCCn1cncn1)c1ccc2c(c1)OCCO2 (centres undefined)
3. Cc1oc(-c2nc(C#N)c(NCC(C)C)o2)cc1S(=O)(=O)N1CCCC1
4. CCC[C@@H]1CN(Cc2cnc3c(S(C)(=O)=O)cnn3c2)C[C@H]1N(C)C
5. O=C(CCO)N1C[C@@H]2CC[C@H]1CN(C1Cc3ccccc3C1)C2
6. CSCCNC(=O)c1coc(COc2ccc3sc(C)nc3c2)n1
7. c1cnc(N2C[C@H]3CCN(CCN4CCCC4)C[C@H]3C2)cn1

A)
-28.6
-6.85
13.1
-2.12
-0.608
-1.51
-114

----------
I'd appreciate it if you could supply cytotoxicity at 10 µM values for the items below.
# ASSAY NOTES: Toxicity liver stage against HepG2, at 10uM
# Assay type: cell-based
# Parameters: test concentration 10 uM, cell line HepG2-A16-CD81EGFP
# APPLIED CONDITIONS: human, HepG2-A16-CD81EGFP cells; read-out: INHIBITION
Numbers only, in %.

{"COMPOUND": "COc1ccc2[nH]cc(C(=O)N3CC[C@H](CO)[C@@H](O)C3)c(=O)c2c1", "VALUE UNITS": "%", "cytotoxicity at 10 µM": 1.26}

Lab note: each compound below needs its cytotoxicity at 10 µM filled in.
1. COCc1ccccc1CNc1cc(N2CCCC2CO)ncn1 (stereo unspecified)
2. COCCN1CCN(Cc2cccc(C(N)=O)c2)CC1C (stereo unspecified)
3. CCN(C)c1ncnc2c1CCN(Cc1ccsc1)CC2
4. O=S(=O)(C1CC1)N1CCOC2(CCCN(Cc3ccccn3)C2)C1 (stereo unspecified)
5. COc1ccc(C(=O)Nc2ccc3c(c2)C(=O)NC3)cc1Br

A)
-1.81
0.794
1.69
-0.78
3.53

----------
I'd appreciate it if you could supply cytotoxicity at 10 µM values for the items below.
# ASSAY NOTES: Toxicity liver stage against HepG2, at 10uM
# Type: cell-based
# Parameters: test concentration 10 uM, cell line HepG2-A16-CD81EGFP
# APPLIED CONDITIONS: human, HepG2-A16-CD81EGFP cells; read-out: INHIBITION
# do not omit the unit; it follows the number

Some compounds with known cytotoxicity at 10 µM results, for comparison:
{"COMPOUND": "N[C@H]1CCCN(C(=O)c2cnc(COc3ccccc3)nc2O)C1", "REPORTED RESULT": "1.67%"}
{"COMPOUND": "Cn1cnc2cc(CCC(=O)Nc3n[nH]c(C4CCCO4)n3)ccc21 (stereo unspecified)", "REPORTED RESULT": "-0.863%"}
{"COMPOUND": "CCO[C@@H]1CC[C@H]2[C@H]1OCCN2C(=O)c1ccc(OC)c(F)c1", "REPORTED RESULT": "15.7%"}

Lab note: each compound below needs its cytotoxicity at 10 µM filled in.
1. Cc1ncncc1C(=O)NCCN1CCC(C)CC1
2. O=C(COCc1nc(-c2ccncc2)no1)N1CCCC1
3. CN(Cc1cnccn1)C(=O)[C@@]12CNC[C@@H]1CN(Cc1ccccc1)C2

A)
1: -8.76%; 2: -10.7%; 3: -2.59%

----------
# ASSAY NOTES: Toxicity liver stage against HepG2, at 10uM
# Type: cell-based
# Set-up: test concentration 10 uM, cell line HepG2-A16-CD81EGFP
# APPLIED CONDITIONS: human, HepG2-A16-CD81EGFP cells; read-out: INHIBITION
RESULT TYPE: cytotoxicity at 10 µM (%)
Numbers only, in %.

{"COMPOUND": "Cc1ccccc1CNC(=O)N1C[C@@H]2C[C@H](C(=O)N3CCCC3)[C@H](C1)O2", "VALUE UNITS": "%", "cytotoxicity at 10 µM": 5.68}
{"COMPOUND": "CCC(CO)N(Cc1ccco1)C(=O)c1ccccc1NC (stereo unspecified)", "VALUE UNITS": "%", "cytotoxicity at 10 µM": 2.1}
{"COMPOUND": "Cc1cccc2c1C(=O)NC(c1cnc(C3CCC3)s1)N2 (stereo unspecified)", "VALUE UNITS": "%", "cytotoxicity at 10 µM": -3.33}
{"COMPOUND": "Cc1cnn(CC2CCCCN2Cc2nccn2CC(F)(F)F)c1 (stereo unspecified)", "VALUE UNITS": "%", "cytotoxicity at 10 µM": -13.7}
{"COMPOUND": "CC(NC(=O)NCCCc1n[nH]c(N)c1C#N)c1cccc(Cl)c1 (stereo unspecified)", "VALUE UNITS": "%", "cytotoxicity at 10 µM": -4.14}
{"COMPOUND": "O=C(NCc1ccc2c(c1)OCO2)c1ccc(N2CCCCCC2)nc1", "VALUE UNITS": "%", "cytotoxicity at 10 µM": -6.78}
{"COMPOUND": "Cc1nn(C(C)C)c(C)c1NC(=O)c1ccc(F)cc1", "VALUE UNITS": "%", "cytotoxicity at 10 µM": -2.27}
{"COMPOUND": "CN(Cc1nnc(-c2ccco2)o1)C(C(N)=O)c1cccc(F)c1 (stereo unspecified)", "VALUE UNITS": "%", "cytotoxicity at 10 µM": 16.7}
{"COMPOUND": "CCn1cc2c(n1)CN(CC1CC1)CC2COCC1CC1 (stereo unspecified)", "VALUE UNITS": "%", "cytotoxicity at 10 µM": -1.26}
{"COMPOUND": "Cc1nc(C2CCN(C(=O)COC(C)C)CC2)cc(N2CCOCC2)n1", "VALUE UNITS": "%", "cytotoxicity at 10 µM": -8.8}

Now take the following compound into account.
Q) Reported cytotoxicity at 10 µM for `O=C(NS(=O)(=O)c1cnn(-c2ccccc2F)c1)c1ccoc1` : what is it?
A) -5.2
